target: Tubulin (Homo sapiens) (UniProt P68371+Q9H4B7+P0DPH7+P68366+Q13509+Q71U36+P04350+Q3ZCM7+P07437+P68363+Q9BQE3+Q6PEY2+Q13885+Q9BVA1+Q9BUF5); assay: Inhibition of tubulin polymerization; type: protein-complex assay
Active and inactive are the calls of the source. The rule behind the calls is not given here.
experimentalReadout: Activity

INSERT INTO measurements (smilesrepr, experimentalreadout, datavalue) VALUES
  ('COc1ccc(/C=C\c2cc(OC)c(OC)c(OC)c2)cc1O', 'Activity', 'Active'),
  ('COc1cc(-c2cocc2-c2ccc3c(c2)OCO3)cc(OC)c1OC', 'Activity', 'Active'),
  ('COc1ccc(-c2cocc2-c2cc(OC)c(OC)c(OC)c2)cc1N', 'Activity', 'Active'),
  ('COc1ccc(-c2c(-c3cc(OC)c(OC)c(OC)c3)coc2/C=N/NC(=O)CCCC(=O)O)cc1', 'Activity', 'Active'),
  ('COc1ccc(-c2cocc2-c2cc(OC)c(OC)c(OC)c2)cc1[N+](=O)[O-]', 'Activity', 'Active');

###

tested on: SH-SY5Y; test: Cytotoxicity against SHSY5Y cell line by MTT assay; assay type: functional, cell-based; conditions: Homo sapiens
Mark Satisfied for IC50 under 5 nM, Not satisfied if at or over.

INSERT INTO results (smilesrepr, qualitativelabel) VALUES
  ('COc1ccc(/C=C\c2cc(OC)c(OC)c(OC)c2)cc1O', 'Satisfied'),
  ('COc1ccc(-c2coc(C=O)c2-c2cc(OC)c(OC)c(OC)c2)cc1', 'Not satisfied'),
  ('COc1ccc(-c2cocc2-c2cc(OC)c(OC)c(OC)c2)cc1O', 'Satisfied'),
  ('COc1ccc(-c2c(-c3cc(OC)c(OC)c(OC)c3)coc2/C=N/NC(=O)CCCC(=O)O)cc1', 'Not satisfied');

###

test system: SH-SY5Y; assay: Cell cycle arrest in SHSY5Y cells by accumulation at S phase after 24 hrs; type: functional, Homo sapiens
experimentalReadout: Activity

INSERT INTO assay_data (smilesrepr, datavalue) VALUES
  ('COc1ccc(-c2c(-c3cc(OC)c(OC)c(OC)c3)coc2C=O)cc1', '29%'),
  ('COc1ccc(/C=C\c2cc(OC)c(OC)c(OC)c2)cc1O', '83%'),
  ('COc1ccc(-c2cocc2-c2cc(OC)c(OC)c(OC)c2)cc1O', '85%'),
  ('COc1ccc(-c2coc(C=O)c2-c2cc(OC)c(OC)c(OC)c2)cc1', '78%');
